- Test system: UACC-62 melanoma
- experimental_details: NCI tumour cell line growth inhibition, 48 h
result_type: TGI

{"molecule": "CN1CCOC1(C)c1ccccc1 (stereo unspecified)", "TGI": "> 100 µM"}
{"molecule": "CCCCCCCCCCCCCCCC(=O)OCC1OC(OCCCC)[C@H](O[C@@H]2OC(C)C(OC(=O)CCC)C(O)C2O)C(O)C1O (stereo partly specified)", "TGI": "23.6 µM"}
{"molecule": "O=[N+]([O-])c1ccc(C2Nn3c(nnc3-c3cccc([N+](=O)[O-])c3)S2)cc1 (stereo unspecified)", "TGI": "> 100 µM"}
{"molecule": "CC(/C=C/c1ccccc1)=N\\NC(=S)N/N=C(C)/C=C/c1ccccc1", "TGI": "> 100 µM"}
{"molecule": "C/C(=C\\CNc1ncnc2c1ncn2C1CCCCO1)COP(=O)(O)O (stereo unspecified)", "TGI": "> 100 µM"}
{"molecule": "O=C(CNc1ccc([N+](=O)[O-])cc1)Nn1c(-c2ccccc2)nc2ccccc2c1=O", "TGI": "2.19 µM"}
{"molecule": "COc1ccc(-c2cc(-c3ccc(Cl)cc3)nc(SCCCC(=O)NO)n2)cc1OC", "TGI": "2.86 µM"}
{"molecule": "Fc1ccc(C2CC(c3cccc(Nc4ccncc4)c3)=NN2c2ccccc2)cc1 (stereo unspecified)", "TGI": "3.24 µM"}

Indicate its recorded TGI; the molecule in question is CCCN(CCCC(NC(C)=O)C(=O)NCc1ccccc1)C(=O)N(C)N=O (stereo unspecified)
> 100 µM

Supply TGI value. Item: C/C(=N\O)C1CC(CC(=O)O)C1(C)C (stereo unspecified)
> 100 µM

Input `COC1=CC(=O)C2=C(C1=O)[C@H]1CC[C@]3(C)C(=O)CC[C@H]3[C@@H]1CC2` , output reported TGI.
> 100 µM

----------
- Test system: HOP-62 NSCLC
- experimental_details: NCI tumour cell line growth inhibition, 48 h
Measured TGI values are reported for all entries that follow.

{"compound": "C=C(CN(C)C)C(=O)c1ccccc1", "TGI": "> 58.3 µM"}
{"compound": "N#Cc1ncc(-c2ccc(C(F)(F)F)cc2)c(NC2CCCCCC2)n1", "TGI": "> 100 µM"}
{"compound": "[CH3][Ge]([CH3])([CH2]CC#N)[S]c1ccccc1", "TGI": "38.1 µM"}
{"compound": "COC1=CC(=O)C2=C(C1=O)[C@H]1CC[C@]3(C)C(=O)CC[C@H]3[C@@H]1CC2", "TGI": "> 100 µM"}
{"compound": "O=C(NCCc1ccccn1)c1ccc2cc(C(=O)N3CC(CCl)c4ccc([N+](=O)[O-])cc43)[nH]c2c1 (stereo not drawn)", "TGI": "48.4 µM"}

Item `COc1ccc(/C(=N/Nc2nc3ccccc3n2Cc2ccccc2)C(=O)O)cc1` : provide TGI
> 100 µM

Fill in reported TGI for this entry: `CCc1nc(N)nc(N)c1-c1ccc(N2CCNCC2)c([N+](=O)[O-])c1`
> 91.8 µM

Read the entry C/C(=C\CNc1ncnc2c1ncn2C1CCCCO1)COP(=O)(O)O (stereo not drawn) and write its reported TGI.
> 100 µM

Item C/C=C(/C)C(=O)OC1C=C(CO)C(=O)C(OC(=O)C2(C)OC2C)C1C(C)C (stereo not drawn) : provide TGI
4.3 µM

Identify measured TGI corresponding to `O=S(O)CCCCCSSc1ccc(Cl)cc1`
41.3 µM

Query TGI for `O=C(Cn1c2ccc(Br)cc2c2nc3ccccc3nc21)NNC(=O)NC1CCCCC1`
78.8 µM

Query TGI for `CCOC(=O)C1(C)C2=CC=C(O2)C(C)(C)C2=CC=C(O2)C(C)(C)C2=CC=C(O2)C(C)(C)C2=CC=C1O2`
> 100 µM

Consider the compound `C=C(CC)C(=O)c1ccc(OCC(=O)O)c(Cl)c1Cl` and give its recorded TGI.
> 56 µM

Check the records and state TGI for CN(C)CC1CCCC/C1=N\OC(=O)c1ccccc1 (stereo not drawn)
> 100 µM
